Target Or Test System: HEK-Blue-hTLR7 cells (Homo sapiens, UniProt Q9NYK1)
Sequence (Q9NYK1 27-1049): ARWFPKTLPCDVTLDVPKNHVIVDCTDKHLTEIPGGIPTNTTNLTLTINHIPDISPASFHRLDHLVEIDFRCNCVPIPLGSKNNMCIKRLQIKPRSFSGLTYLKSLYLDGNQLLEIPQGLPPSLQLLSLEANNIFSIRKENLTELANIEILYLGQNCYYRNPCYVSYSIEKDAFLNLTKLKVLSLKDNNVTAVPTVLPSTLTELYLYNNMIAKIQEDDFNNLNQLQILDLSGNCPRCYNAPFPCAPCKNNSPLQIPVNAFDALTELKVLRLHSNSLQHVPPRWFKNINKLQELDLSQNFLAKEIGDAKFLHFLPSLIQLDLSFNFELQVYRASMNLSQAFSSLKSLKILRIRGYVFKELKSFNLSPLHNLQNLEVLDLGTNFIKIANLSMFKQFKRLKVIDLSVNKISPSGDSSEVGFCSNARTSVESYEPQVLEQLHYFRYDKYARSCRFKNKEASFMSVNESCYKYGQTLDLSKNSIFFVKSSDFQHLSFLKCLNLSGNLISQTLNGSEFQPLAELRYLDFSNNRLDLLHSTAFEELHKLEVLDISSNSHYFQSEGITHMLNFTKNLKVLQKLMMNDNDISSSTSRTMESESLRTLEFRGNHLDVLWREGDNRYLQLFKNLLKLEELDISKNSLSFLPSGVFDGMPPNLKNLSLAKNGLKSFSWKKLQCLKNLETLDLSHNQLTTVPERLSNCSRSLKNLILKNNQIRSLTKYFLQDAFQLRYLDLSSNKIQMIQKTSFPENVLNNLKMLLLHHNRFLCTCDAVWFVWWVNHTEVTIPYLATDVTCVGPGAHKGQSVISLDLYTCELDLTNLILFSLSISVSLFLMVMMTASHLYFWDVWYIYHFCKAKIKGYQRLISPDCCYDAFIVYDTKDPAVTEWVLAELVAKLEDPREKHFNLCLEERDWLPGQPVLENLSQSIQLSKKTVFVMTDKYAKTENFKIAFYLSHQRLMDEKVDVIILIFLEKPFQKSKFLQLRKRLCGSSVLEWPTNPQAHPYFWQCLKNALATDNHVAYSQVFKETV
Test: HEK-Blue-hTLR7 cell inhibition assay
Conditions: R848 0.8 µM, 16 h, OD 620 nm, read-out: TLR7 IC50
Reported IC50 values are given for each entry in this list.
Measured Endpoint: IC50

Compound: CN1CCC(Oc2nnc([C@]34CN(c5ccc(OC(F)(F)F)c6ncccc56)C[C@@]3(C(F)(F)F)C4)o2)CC1
Target Or Test System: HEK-Blue-hTLR7 cells (Homo sapiens, UniProt Q9NYK1)
Obs Value: < 1000 nM

Compound: CN1CC2CC1CC2c1nnc([C@]23CN(c4ccc(C#N)c5ncccc45)C[C@@]2(C(F)(F)F)C3)o1 (stereo partly shown)
Target Or Test System: HEK-Blue-hTLR7 cells (Homo sapiens, UniProt Q9NYK1)
Obs Value: < 100 nM

Compound: CN1CCC(Nc2nnc([C@]34CN(c5ccc(C#N)c6ncccc56)C[C@@]3(C(F)(F)F)C4)o2)CC1
Target Or Test System: HEK-Blue-hTLR7 cells (Homo sapiens, UniProt Q9NYK1)
Obs Value: < 100 nM

Compound: N#Cc1ccc(N2C[C@]3(c4nnc(C5(F)CCNCC5)o4)C[C@]3(C(F)(F)F)C2)c2cccnc12
Target Or Test System: HEK-Blue-hTLR7 cells (Homo sapiens, UniProt Q9NYK1)
Obs Value: < 100 nM

Compound: CN1CCC(n2cc([C@]34CN(c5ccc(C#N)c6ncccc56)C[C@@]3(C(F)(F)F)C4)nn2)CC1
Target Or Test System: HEK-Blue-hTLR7 cells (Homo sapiens, UniProt Q9NYK1)
Obs Value: < 100 nM

Compound: N#Cc1ccc(N2C[C@]3(c4nnc(C56CCC(N)(CC5)CC6)o4)C[C@]3(C(F)(F)F)C2)c2cccnc12
Target Or Test System: HEK-Blue-hTLR7 cells (Homo sapiens, UniProt Q9NYK1)
Obs Value: < 100 nM

Compound: N#Cc1ccc(N2C[C@]3(c4nnc([C@H]5CN(CC(N)=O)CCO5)o4)C[C@]3(C(F)(F)F)C2)c2cccnc12
Target Or Test System: HEK-Blue-hTLR7 cells (Homo sapiens, UniProt Q9NYK1)
Obs Value: < 100 nM

Compound: CN1CCC(Cc2nnc([C@]34CN(c5ccc(C#N)c6ncccc56)C[C@@]3(C(F)(F)F)C4)n2C)CC1
Target Or Test System: HEK-Blue-hTLR7 cells (Homo sapiens, UniProt Q9NYK1)
Obs Value: < 1000 nM

Compound: CN1CCC(c2nnc([C@]34CN(c5c(Br)cc(C#N)n6nccc56)C[C@@]3(C(F)(F)F)C4)o2)CC1
Target Or Test System: HEK-Blue-hTLR7 cells (Homo sapiens, UniProt Q9NYK1)
Obs Value: < 1000 nM

Compound: Cc1ccc2c(N3C[C@]4(c5nnc(C6CCN(C)CC6)o5)C[C@]4(C(F)(F)F)C3)ccc(C#N)c2n1
Target Or Test System: HEK-Blue-hTLR7 cells (Homo sapiens, UniProt Q9NYK1)
Obs Value: > 1000 nM

Compound: CN1CCC(c2nnc([C@]34CN(c5ccc(C(F)(F)F)c6nccnc56)C[C@@]3(C(F)(F)F)C4)o2)CC1
Target Or Test System: HEK-Blue-hTLR7 cells (Homo sapiens, UniProt Q9NYK1)
Obs Value: < 100 nM

Compound: CN1CCC(c2nnc([C@]34CN(c5ccc(C#N)c6ncccc56)C[C@@]3(C(F)(F)F)C4)[nH]2)CC1
Target Or Test System: HEK-Blue-hTLR7 cells (Homo sapiens, UniProt Q9NYK1)
Obs Value: < 100 nM

Compound: N#Cc1ccc(N2C[C@]3(c4nnc(C#CCN5CCOCC5)o4)C[C@]3(C(F)(F)F)C2)c2cccnc12
Target Or Test System: HEK-Blue-hTLR7 cells (Homo sapiens, UniProt Q9NYK1)
Obs Value: < 1000 nM

Compound: CN1CCN(c2nnc([C@]34CN(c5ccc(C#N)c6ncccc56)C[C@@]3(C(F)(F)F)C4)o2)CC1
Target Or Test System: HEK-Blue-hTLR7 cells (Homo sapiens, UniProt Q9NYK1)
Obs Value: < 100 nM

Compound: CN1CCC(c2nnc([C@]34CN(c5ccc(C#N)c6nc(Cl)ccc56)C[C@@]3(C(F)(F)F)C4)o2)CC1
Target Or Test System: HEK-Blue-hTLR7 cells (Homo sapiens, UniProt Q9NYK1)
Obs Value: > 1000 nM

Compound: CN1CC(Cc2nnc([C@]34CN(c5ccc(C(F)(F)F)c6ncccc56)C[C@@]3(C(F)(F)F)C4)o2)C1
Target Or Test System: HEK-Blue-hTLR7 cells (Homo sapiens, UniProt Q9NYK1)
Obs Value: < 100 nM

Compound: CN(C)CCc1nnc([C@]23CN(c4ccc(C#N)c5ncccc45)C[C@@]2(C(F)(F)F)C3)o1
Target Or Test System: HEK-Blue-hTLR7 cells (Homo sapiens, UniProt Q9NYK1)
Obs Value: < 100 nM

Compound: CN1CCC(c2nnc([C@]34CN(c5ccc(C#N)n6ncc(Cl)c56)C[C@@]3(C(F)(F)F)C4)o2)CC1
Target Or Test System: HEK-Blue-hTLR7 cells (Homo sapiens, UniProt Q9NYK1)
Obs Value: < 100 nM

Compound: CN1CCC(c2nnc([C@]34CN(c5ccc(C#N)c6ncccc56)C[C@@]3(C(F)(F)F)C4)o2)CC1=O (stereo partly shown)
Target Or Test System: HEK-Blue-hTLR7 cells (Homo sapiens, UniProt Q9NYK1)
Obs Value: < 100 nM

Compound: N#Cc1ccc(N2C[C@]3(c4nnc([C@H]5CC[C@H](N)CC5)o4)C[C@]3(C(F)(F)F)C2)c2cccnc12
Target Or Test System: HEK-Blue-hTLR7 cells (Homo sapiens, UniProt Q9NYK1)
Obs Value: < 100 nM

Compound: N#Cc1ccc(N2C[C@]3(c4nnc(CCN5CCOCC5)o4)C[C@]3(C(F)(F)F)C2)c2cccnc12
Target Or Test System: HEK-Blue-hTLR7 cells (Homo sapiens, UniProt Q9NYK1)
Obs Value: < 1000 nM

Compound: FC(F)(F)c1ccc(N2C[C@]3(c4nnc(C5CCNCC5)o4)C[C@]3(C(F)(F)F)C2)c2cccnc12
Target Or Test System: HEK-Blue-hTLR7 cells (Homo sapiens, UniProt Q9NYK1)
Obs Value: < 100 nM

Compound: NC12CCC(c3nnc([C@]45CN(c6ccc(C(F)(F)F)c7ncccc67)C[C@@]4(C(F)(F)F)C5)o3)(CC1)CC2
Target Or Test System: HEK-Blue-hTLR7 cells (Homo sapiens, UniProt Q9NYK1)
Obs Value: < 100 nM

Compound: FC(F)(F)c1ccc(N2C[C@]3(c4nnc(C5(F)CCNCC5)o4)C[C@]3(C(F)(F)F)C2)c2cccnc12
Target Or Test System: HEK-Blue-hTLR7 cells (Homo sapiens, UniProt Q9NYK1)
Obs Value: < 100 nM

Compound: CN1CCC(c2nnc([C@]34CN(c5ccc(C#N)c6ncnn56)C[C@@]3(C(F)(F)F)C4)o2)CC1
Target Or Test System: HEK-Blue-hTLR7 cells (Homo sapiens, UniProt Q9NYK1)
Obs Value: < 100 nM

Compound: CN1CCC(C)(c2nnc([C@]34CN(c5ccc(C#N)c6ncccc56)C[C@@]3(C(F)(F)F)C4)o2)CC1
Target Or Test System: HEK-Blue-hTLR7 cells (Homo sapiens, UniProt Q9NYK1)
Obs Value: < 100 nM

Compound: N#Cc1ccc(N2C[C@]3(c4nnc(C5(F)CNC5)o4)C[C@]3(C(F)(F)F)C2)c2cccnc12
Target Or Test System: HEK-Blue-hTLR7 cells (Homo sapiens, UniProt Q9NYK1)
Obs Value: < 100 nM

Compound: CN1CCC(Oc2nnc([C@]34CN(c5ccc(C#N)n6nccc56)C[C@@]3(C(F)(F)F)C4)o2)CC1
Target Or Test System: HEK-Blue-hTLR7 cells (Homo sapiens, UniProt Q9NYK1)
Obs Value: < 100 nM
